Numbers sourced from PubChem BioAssay (NCI).

Tested on: A549 NSCLC
Experiment: NCI tumour cell line growth inhibition, 48 h
Attribute: TGI

INSERT INTO assay_data (compound, assay_target, parameter, observed) VALUES
  ('Nc1nc(F)nc2c1ncn2C1OC(CO)C(O)C1O (stereo not drawn)', 'A549 NSCLC', 'TGI', '> 100 µM'),
  ('Oc1cccc(-c2nc3cc(F)ccc3s2)c1', 'A549 NSCLC', 'TGI', '88.5 µM'),
  ('CC(C)(C)OC(=O)NCCCNC1(c2cc3ccccc3s2)CCCCC1', 'A549 NSCLC', 'TGI', '27.2 µM'),
  ('CN1[C@@H]2C[C@@H](OC(=O)[C@H](CO)c3ccccc3)C[C@H]1[C@@H]1O[C@@H]12', 'A549 NSCLC', 'TGI', '> 100 µM');

Entry O=C(Nc1c(Cl)cc([N+](=O)[O-])cc1Cl)C(=O)C(C1OC(=O)c2ccccc21)[N+](=O)[O-] (stereo not drawn) under A549 NSCLC had TGI of > 100 µM

Entry CC/C=C\C[C@H]1C/C=C2/C(=O)C=C[C@@H]2C/C=C\CCCC(=O)O1 under A549 NSCLC had TGI of 9.05 µM

Entry O=c1cccc(C#CC#CC2=CCCCC2)o1 under A549 NSCLC had TGI of > 47.7 µM

Entry CCOC(=O)NC(Nc1ccc([N+](=O)[O-])cc1)(C(F)(F)F)C(F)(F)F under A549 NSCLC had TGI of > 100 µM

Entry ClCc1cccc(Cn2cnc3nc(Cl)nc(Cl)c32)c1 under A549 NSCLC had TGI of 19.8 µM

Entry Cc1[nH]c2ccccc2c(=O)c1CC=C(Cl)Cl under A549 NSCLC had TGI of > 100 µM

Entry C=C(Cl)C(C)(Cl)CCC(Br)C(C)(C)Cl (stereo not drawn) under A549 NSCLC had TGI of > 100 µM

Entry COc1cc(/C=C(\C#N)c2ccccc2)cc(OC)c1 under A549 NSCLC had TGI of > 100 µM

Entry CC(C(O)Cc1ccccc1)N(C)N=Nc1ccc([N+](=O)[O-])cc1 (stereo not drawn) under A549 NSCLC had TGI of 72 µM

Entry O=C1C(=Cc2ccccc2O)N=C(c2ccccc2)N1n1c(-c2ccccc2)nc2ccccc2c1=O under A549 NSCLC had TGI of > 100 µM

Entry S=C(Nc1ccc2c(c1)oc1ccccc12)c1cccnc1 under A549 NSCLC had TGI of > 100 µM
